# System: LXRa homodimer (NR concentration 270 nM)
# method-description: PBM binding z-score (relative to random genomic background probes); higher = stronger binding; sequences stand for … in GC…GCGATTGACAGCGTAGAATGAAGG
measured-metric: PBM binding z-score
Could you keep your reply to the number by itself?

Incoming: # input sequence: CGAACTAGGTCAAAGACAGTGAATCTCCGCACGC ; wanted: its PBM binding z-score
Outgoing: 0.268

Incoming: Please give the result for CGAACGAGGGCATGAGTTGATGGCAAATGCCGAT too.
Outgoing: -0.503

Incoming: Please give the result for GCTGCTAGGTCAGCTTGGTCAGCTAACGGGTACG too.
Outgoing: -0.534

Incoming: Please give the result for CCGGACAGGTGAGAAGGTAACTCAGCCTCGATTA too.
Outgoing: -0.289

Incoming: Please give the result for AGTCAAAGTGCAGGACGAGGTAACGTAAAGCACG too.
Outgoing: -0.419

Incoming: Please give the result for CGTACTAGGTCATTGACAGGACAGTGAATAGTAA too.
Outgoing: 0.997

Incoming: Please give the result for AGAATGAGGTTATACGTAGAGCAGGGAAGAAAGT too.
Outgoing: -0.116

Incoming: Please give the result for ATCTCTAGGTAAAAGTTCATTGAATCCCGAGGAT too.
Outgoing: 4.04

Incoming: Please give the result for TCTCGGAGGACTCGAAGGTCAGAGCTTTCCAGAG too.
Outgoing: -0.429

Incoming: Please give the result for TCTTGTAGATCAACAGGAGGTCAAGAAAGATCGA too.
Outgoing: 3.02

Incoming: Please give the result for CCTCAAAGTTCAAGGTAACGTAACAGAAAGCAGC too.
Outgoing: 3.49

Incoming: Please give the result for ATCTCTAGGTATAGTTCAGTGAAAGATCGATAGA too.
Outgoing: 0.814

Incoming: Please give the result for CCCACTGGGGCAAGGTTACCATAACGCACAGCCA too.
Outgoing: -0.0723

Incoming: Please give the result for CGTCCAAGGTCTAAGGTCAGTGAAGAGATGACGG too.
Outgoing: -0.0447

Incoming: Please give the result for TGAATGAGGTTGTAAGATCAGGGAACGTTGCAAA too.
Outgoing: -0.429

Incoming: Please give the result for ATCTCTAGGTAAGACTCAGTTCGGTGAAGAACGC too.
Outgoing: 0.624

Incoming: Please give the result for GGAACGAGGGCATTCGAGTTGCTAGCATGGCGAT too.
Outgoing: -0.577

Data origin: the supplement of paper PMC6555819
